Tested target: Solute carrier family 2, facilitated glucose transporter member 1 (Homo sapiens)
Protocol text: ST_JUDE_LEISH: Cytotoxicity at 2uM final concentration against transgenic Leishmania Mexicana promastigotes LmGLUT1 that are glucose transport deficient and complemented with the human glucose transporter GLUT1. Activity is measured by DNA content using SYBR green in vitro
Format: functional
Listed next: entries and their corresponding inhibition.
Value expressed in %; do not type the unit.

FC(F)(F)c1ccc2[nH]c(-c3ccc(-c4cccc(CNCCc5cccnc5)c4)s3)nc2c1    3.04
CC(C)(C)CNCC(C)(C)c1nc(-c2ccc(Cl)c(O)c2)c(-c2ccncc2)[nH]1    -1.13
CCCCCCN1CCN(Cc2cccc(NC(=O)c3cc4ccccc4o3)c2)CC1    1.59
CCNCc1ccc(-c2cc3ncnc(Nc4ccc(OCc5cccc(F)c5)c(Cl)c4)c3s2)[nH]1    -0.88

q: Looking for the measured inhibition of Oc1ccccc1Nc1nc(NCc2ccco2)c2ccccc2n1 , can you help?
a: 15.3

q: Looking for the measured inhibition of O=C(NCc1ccco1)c1ccc(S(=O)(=O)c2ccc(Cl)cc2)cc1 , can you help?
a: 0.13

q: Looking for the measured inhibition of CCN(CC)CCOC(=O)c1ccc(NC(=O)c2cc(-c3ccc(C)cc3)nc3ccccc23)cc1 , can you help?
a: 1.71

q: Looking for the measured inhibition of CC[C@H](C)CNC(=O)c1ccnc(-c2ccc(CN3CCC(N4CCCC4)CC3)cc2)c1 , can you help?
a: 1.51

---

Tested target: Glucose transporter (Leishmania mexicana)
Protocol text: ST_JUDE_LEISH: Cytotoxicity at 2uM final concentration against transgenic Leishmania Mexicana promastigotes LmGT2 that are glucose transport deficient and complemented with the L. Mexicana glucose transporter 2. Activity is measured by DNA content using SYBR green in vitro
Assay type: functional
Reported property: inhibition (%)
Value expressed in %; do not type the unit.

As a guide, the following entries are already answered.
O=C(/C=C/c1ccc(Cl)c(Cl)c1)NCC1CCN(Cc2ccc(O)cc2)CC1    46.2
CS(=O)(=O)N1CC2(CCN(CCC(NC(=O)/C=C/c3ccccc3)c3ccc(Cl)c(Cl)c3)CC2)c2ccccc21 (stereo not given)    1.25
CC(CN1CCN(C)CC1)C(=O)Nc1ccc(-c2ccc(-c3nc4cc(F)ccc4[nH]3)cc2)cc1 (stereo not given)    8.04
CNC(=O)c1cc(S(=O)(=O)Nc2ccc(OC)cc2)cs1    2.1
CN1CCN(c2ccc(Nc3c(C(N)=O)cnc4cc(-c5ccoc5)ccc34)cc2)CC1    3.57
O=C1OC(c2ccccc2)(c2ccccn2)CN1C1CCN(Cc2cccn2-c2ccc(Cl)cc2)CC1 (stereo not given)    -0.08
Cc1cc(-c2ccc(O)c(CNC3CCCCC3)c2)cnc1N    0.95
Cc1[nH]c(C)c(-c2ccc(-c3ccc(C(F)(F)F)cc3C(F)(F)F)nc2)c(=O)c1Br    0.14
CCCCc1ccc(C(=O)Nc2ccc3nc(N4CCN(C)CC4)cc(C)c3c2)cc1    3.48

q: Looking for the measured inhibition of COc1cc(Cc2c(C)nc3nc(N)nc(N)c3c2C)c(Br)c(OC)c1OC , can you help?
a: 4.73

---

Tested target: Hexose transporter 1 (Plasmodium falciparum)
Protocol text: ST_JUDE_LEISH: Cytotoxicity at 2uM final concentration against transgenic Leishmania Mexicana promastigotes LmPfHT that are glucose transport deficient and complemented with the Plasmodium falciparum hexose transporter. Activity is measured by DNA content using SYBR green in vitro
Format: functional
Reported property: inhibition (%)
Value expressed in %; do not type the unit.

As a guide, the following entries are already answered.
N#Cc1cnc(Nc2ccc(Oc3ccccc3)cc2)nc1Nc1cccc(S(N)(=O)=O)c1    5.38
COc1ccc(-c2cc(Nc3nc(-c4cccc(Cl)c4)nc4ccccc34)ccn2)cc1    0.61
Cc1[nH]c(C)c(-c2ccc(OCCCCSc3ccncc3)cc2)c(=O)c1Br    6.45

q: Looking for the measured inhibition of O=C(Nc1ccc2ccccc2n1)c1ccccc1-c1ccccc1 , can you help?
a: 2.19

q: Looking for the measured inhibition of O=C(NCCCN1CCCC1=O)c1cnc(N2CCC(Oc3ccccc3)CC2)c(Cl)c1 , can you help?
a: 3.58

q: Looking for the measured inhibition of SC(=Nc1ccc2c(c1)OCCO2)NN=Cc1ccccn1 , can you help?
a: -0.16

q: Looking for the measured inhibition of Cc1cc(F)ccc1[C@H]1CNCCN1C(=O)N(C)[C@@H](C)c1cc(C(F)(F)F)cc(C(F)(F)F)c1 , can you help?
a: -0.16

q: Looking for the measured inhibition of CN1CCC(N2CCN(Cc3cccc(-c4ccc(-c5nc6cc(C(F)(F)F)ccc6[nH]5)cc4)c3)CC2)CC1 , can you help?
a: 3.31

q: Looking for the measured inhibition of O=C(Nc1cccc(-c2cccc(-c3ccc(F)cc3)n2)c1)c1ccc([N+](=O)[O-])o1 , can you help?
a: 11.4

q: Looking for the measured inhibition of Cc1nc(Cl)c2c(-c3ccccc3)csc2n1 , can you help?
a: -0.74
